Assay: IV pharmacokinetics in mice
Type: in vivo, Balbc mice
Details: mouse, plasma, 5 mg/kg; Table 9; BalbC mice, IV dosing; read-out: AUC0-inf
recorded-metric: AUC(0-inf) (ng·h/mL)

chemical-string	reported
COc1ccc2nc(/C=C/C(=O)c3ccncc3)ccc2c1	541
COc1ccc2nc(/C=C/C(=O)c3ccnc(OC)c3)ccc2c1	696
O=C(/C=C/c1ccc2cccc(C(F)(F)F)c2n1)c1ccncc1	225
O=C(/C=C/c1ccc2cc(OCCN3CCCCC3)ccc2n1)c1ccncc1	63
Cc1ccc2ccc(/C=C/C(=O)c3ccncc3)nc2c1	1100

###

Measured half-life accompanies every entry in the list below.
Assay: IV pharmacokinetics in mice
Format: in vivo, Balbc mice
Details: mouse, plasma, 5 mg/kg; Table 9; BalbC mice, IV dosing

chemical-string	half-life, h
O=C(/C=C/c1ccc2cc(OCCN3CCCCC3)ccc2n1)c1ccncc1	2.5
COc1ccc2nc(/C=C/C(=O)c3ccncc3)ccc2c1	0.7
Cc1ccc2ccc(/C=C/C(=O)c3ccncc3)nc2c1	6.1
COc1ccc2nc(/C=C/C(=O)c3ccnc(OC)c3)ccc2c1	2.8
O=C(/C=C/c1ccc2cccc(C(F)(F)F)c2n1)c1ccncc1	3.8
